Tested on: Drosophila suzukii
test name: Insecticidal activity against Drosophila suzukii assessed as male mortality at 41 g/ha by direct application at 22 degC measured after 24 hr
Assay type: functional, organism-based
Calls of active or inactive are those of the source. The rule behind the calls is not given here.
value kind: Activity

# line notation, value kind, reported value
data = [
    ("C/C=C(\\C)C(=O)O[C@H]1C[C@@H](OC(C)=O)[C@@]2(C(=O)OC)CO[C@H]3[C@@H](O)[C@@](C)([C@]45O[C@@]4(C)[C@@H]4C[C@H]5O[C@@H]5OC=C[C@@]54O)[C@H]4[C@]1(CO[C@]4(O)C(=O)OC)[C@@H]32", "Activity", "Active"),
    ("CNC(=O)c1cc(Cl)cc(C)c1NC(=O)c1cc(Br)nn1-c1ncccc1Cl", "Activity", "Active"),
    ("C/C(=N\\C#N)N(C)Cc1ccc(Cl)nc1", "Activity", "Active"),
    ("CNC(=O)Oc1cccc2ccccc12", "Activity", "Active"),
]

Next compound, please.
Log: Drosophila suzukii, compound `CN1COCN(Cc2cnc(Cl)s2)/C1=N\[N+](=O)[O-]` , Activity = Active
